Origin of values: ChEMBL document CHEMBL4400579

experiment: Antibacterial activity against Campylobacter jejuni ATCC 33560 AS-83-79 measured after 16.4 hrs; type: functional, Campylobacter jejuni subsp. jejuni
Value type: IC50 (µM)

C=C(Cc1cccc(C(=O)O)c1)C(=O)O	13.6
CN[C@@H]1[C@@H](O)[C@@H](O[C@@H]2[C@@H](O)[C@H](O[C@H]3O[C@H]([C@@H](C)N)CC[C@H]3N)[C@@H](N)C[C@H]2N)OC[C@]1(C)O	1.9

1 = CCCCSC[C@H]1CN(Cc2c[nH]c3c(N)ncnc23)C[C@@H]1O
2 = Nc1ncnc2c1ncn2[C@@H]1O[C@H](CCC(Cc2cccc(C(=O)O)c2)C(=O)O)[C@@H](O)[C@H]1O (some centres undefined)
Between 1 and 2 , whose recorded IC50 is greater? Which one? Tell me its label.
2

---

test system: Helicobacter pylori; assay: Antibacterial activity against Helicobacter pylori 26695 ATCC 700392 measured after 72 hrs; format: functional, organism-based; conditions: 26695 ATCC 700392, 72 h
Value type: IC50 (µM)

a = CN[C@@H]1[C@@H](O)[C@@H](O[C@@H]2[C@@H](O)[C@H](O[C@H]3O[C@H]([C@@H](C)N)CC[C@H]3N)[C@@H](N)C[C@H]2N)OC[C@]1(C)O
b = CCCCSC[C@H]1CN(Cc2c[nH]c3c(N)ncnc23)C[C@@H]1O
Between a and b , whose recorded IC50 is greater? Which one? Tell me its label.
a

---

Biological target: Aminodeoxyfutalosine synthase (Thermus thermophilus (strain HB8 / ATCC 27634 / DSM 579), UniProt Q5SK48)
Sequence (Q5SK48 whole entry): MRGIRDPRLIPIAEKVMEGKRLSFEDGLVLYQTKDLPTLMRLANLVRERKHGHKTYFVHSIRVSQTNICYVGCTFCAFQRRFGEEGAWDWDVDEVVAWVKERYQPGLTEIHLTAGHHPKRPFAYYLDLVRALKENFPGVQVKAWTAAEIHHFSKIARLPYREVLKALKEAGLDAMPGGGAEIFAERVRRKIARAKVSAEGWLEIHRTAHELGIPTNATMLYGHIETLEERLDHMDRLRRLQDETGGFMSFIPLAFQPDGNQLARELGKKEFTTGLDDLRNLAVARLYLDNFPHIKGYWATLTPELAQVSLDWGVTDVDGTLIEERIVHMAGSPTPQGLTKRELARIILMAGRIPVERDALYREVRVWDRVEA
Test: Inhibition of N-terminal His6-tagged Thermus thermophilus HB8 MqnE expressed in Escherichia coli BL21 (DE3) co-expressing [4Fe-4S]2+ cluster using 3-(1-carboxyvinyloxy)benzoic acid as substrate preincubated for 15 mins in presence of SAM and substrate followed by Ti(3+)citrate addition and measured by discontinuous HPLC analysis
Value type: Ki (µM)
State just the number; it will be interpreted in µM.

Recorded result, C=C(Cc1cccc(C(=O)O)c1)C(=O)O , Ki: 3.1
